# Tested on: E. coli ATCC25922 (tetracycline sensitive)
measurement_kind: MIC

Lookup: What value of MIC on E. coli ATCC25922 (tetracycline sensitive) does `CC(C)c1cc(N(C)C)c2c(c1O)C(=O)C1=C(O)[C@]3(O)C(=O)C(C(N)=O)=C(O)[C@@H](N(C)C)[C@@H]3C[C@@H]1C2` have?
Found: > 64 µg/mL

Lookup: Try `CN(C)c1cc(-c2cccn2C)c(O)c2c1C[C@H]1C[C@H]3CC(O)=C(C(N)=O)C(=O)[C@@]3(O)C(O)=C1C2=O` next.
Found: > 64 µg/mL

----------
# System: collagen-induced arthritis (CIA) in male DBA/1 mice
# procedure_text: Murine collagen-induced arthritis (CIA) model, Example 2
# Type: in vivo, mouse
# conditions: day 5 of dosing; 25 mg/kg/day i.p.
measurement_kind: Change in Paw Thickness (mm) Mean
A number alone suffices; assume mm.

Check out these entries, answers already filled in.
# molecule, readout_units, numeric_readout
rows = [
    ("COC(=O)c1cc(N(C)C)c2c(c1O)C(=O)C1=C(O)[C@]3(O)C(=O)C(C(N)=O)=C(O)C[C@@H]3C[C@@H]1C2", "mm", 0.51),
    ("CCc1cc(N(C)C)c2c(c1O)C(=O)C1=C(O)[C@]3(O)C(=O)C(C(N)=O)=C(O)C[C@@H]3C[C@@H]1C2", "mm", 0.46),
    ("CC(C)c1cc(N(C)C)c2c(c1O)C(=O)C1=C(O)[C@]3(O)C(=O)C(C(N)=O)=C(O)[C@@H](N(C)C)[C@@H]3C[C@@H]1C2", "mm", 0.36),
]

Lookup: What Change in Paw Thickness (mm) Mean value was documented for this molecule, `CN(C)c1cc(-c2cccn2C)c(O)c2c1C[C@H]1C[C@H]3CC(O)=C(C(N)=O)C(=O)[C@@]3(O)C(O)=C1C2=O` ?
Found: 0.05

Lookup: Try CN(C)c1ccc(O)c2c1C[C@H]1C[C@H]3[C@H](N(C)C)C(O)=C(C(N)=O)C(=O)[C@@]3(O)C(O)=C1C2=O [Minocycline, minocycline, reference compound] next.
Found: 0.93
